Value source: ChEMBL document CHEMBL5233259

target: UniProt P29350
Sequence (P29350 whole entry): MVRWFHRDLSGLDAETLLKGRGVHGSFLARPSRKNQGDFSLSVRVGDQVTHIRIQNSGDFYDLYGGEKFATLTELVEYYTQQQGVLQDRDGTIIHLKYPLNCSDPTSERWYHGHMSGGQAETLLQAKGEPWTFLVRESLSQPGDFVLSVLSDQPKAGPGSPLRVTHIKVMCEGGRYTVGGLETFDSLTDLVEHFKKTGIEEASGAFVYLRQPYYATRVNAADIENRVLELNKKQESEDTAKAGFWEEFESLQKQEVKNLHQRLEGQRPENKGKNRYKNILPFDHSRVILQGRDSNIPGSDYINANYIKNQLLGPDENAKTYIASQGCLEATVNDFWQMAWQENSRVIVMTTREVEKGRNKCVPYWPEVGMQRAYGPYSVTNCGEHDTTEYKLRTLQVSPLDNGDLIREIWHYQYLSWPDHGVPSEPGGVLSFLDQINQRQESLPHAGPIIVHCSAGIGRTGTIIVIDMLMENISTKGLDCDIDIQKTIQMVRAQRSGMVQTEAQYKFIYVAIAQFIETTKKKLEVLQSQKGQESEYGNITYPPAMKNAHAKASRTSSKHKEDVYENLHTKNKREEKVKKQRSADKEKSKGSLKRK
Observed property: IC50 (nM)
Answer with a number only, understood to be in nM.

State the recorded IC50 for this entry: O=S(=O)(O)c1ccc2cc(/N=N/c3cc(S(=O)(=O)O)c4cccnc4c3O)ccc2c1
355

====

molecular target: UniProt P29350; test: Inhibition of SHP1 (unknown origin)
Observed property: IC50 (µM)
// return numeric value only (unit: µM, not printed)

Item under review: O=C1/C(=N\Nc2ccc(S(=O)(=O)O)cc2)C(c2ccc([N+](=O)[O-])cc2)=NN1c1ccccc1 . Reported IC50?
30

====

target: Tyrosine-protein phosphatase non-receptor type 11 (Homo sapiens)
Sequence (Q06124 whole entry): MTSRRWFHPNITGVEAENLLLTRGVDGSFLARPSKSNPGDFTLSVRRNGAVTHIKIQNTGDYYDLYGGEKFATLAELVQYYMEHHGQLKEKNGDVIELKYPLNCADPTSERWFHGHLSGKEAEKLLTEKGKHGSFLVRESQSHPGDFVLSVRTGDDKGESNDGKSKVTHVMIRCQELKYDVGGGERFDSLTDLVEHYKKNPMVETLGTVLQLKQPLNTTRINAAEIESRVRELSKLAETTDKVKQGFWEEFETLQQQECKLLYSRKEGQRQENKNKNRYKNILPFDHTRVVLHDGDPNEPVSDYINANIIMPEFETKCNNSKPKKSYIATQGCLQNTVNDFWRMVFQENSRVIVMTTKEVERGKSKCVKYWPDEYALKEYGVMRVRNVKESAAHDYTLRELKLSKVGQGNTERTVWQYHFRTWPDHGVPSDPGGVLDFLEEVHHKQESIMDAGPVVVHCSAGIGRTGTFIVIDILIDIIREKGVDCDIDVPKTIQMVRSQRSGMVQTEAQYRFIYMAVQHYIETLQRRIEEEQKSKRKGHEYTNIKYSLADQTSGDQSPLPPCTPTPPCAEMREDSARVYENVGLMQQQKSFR
Observed property: pIC50
Lab note — pIC50 values are minus log10 of concentrations in M.

Checklist item: pIC50 tested on Tyrosine-protein phosphatase non-receptor type 11 (Homo sapiens), entry O=C1Nc2ccc(S(=O)(=O)O)cc2/C1=N/Nc1ccccc1[N+](=O)[O-] , value?
6.10
